Biological target: Solute carrier organic anion transporter family member 1B1 (Homo sapiens, UniProt Q9Y6L6)
Sequence (Q9Y6L6 whole entry): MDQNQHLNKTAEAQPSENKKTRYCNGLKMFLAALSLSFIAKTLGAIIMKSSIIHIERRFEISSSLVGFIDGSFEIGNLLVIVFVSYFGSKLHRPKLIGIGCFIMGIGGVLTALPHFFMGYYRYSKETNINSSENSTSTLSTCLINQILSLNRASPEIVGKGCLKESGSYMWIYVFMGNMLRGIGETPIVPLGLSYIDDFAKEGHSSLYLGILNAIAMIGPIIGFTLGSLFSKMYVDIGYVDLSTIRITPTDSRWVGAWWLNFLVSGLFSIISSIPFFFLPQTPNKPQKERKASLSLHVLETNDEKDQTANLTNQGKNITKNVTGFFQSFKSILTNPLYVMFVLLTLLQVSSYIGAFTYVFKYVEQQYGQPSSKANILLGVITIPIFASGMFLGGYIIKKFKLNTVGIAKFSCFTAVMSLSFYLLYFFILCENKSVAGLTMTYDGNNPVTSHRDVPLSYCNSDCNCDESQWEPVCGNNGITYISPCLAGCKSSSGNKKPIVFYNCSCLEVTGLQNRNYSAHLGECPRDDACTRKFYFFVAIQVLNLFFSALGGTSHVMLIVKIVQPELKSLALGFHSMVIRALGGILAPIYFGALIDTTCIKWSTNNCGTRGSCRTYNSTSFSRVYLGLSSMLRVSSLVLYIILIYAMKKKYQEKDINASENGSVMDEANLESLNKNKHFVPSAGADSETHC
Conditions: chinese hamster, cho, 10 µM
# reported residual activity; entries follow
Give just the number in %; leave the unit off.

Sample records with residual activity:
[[record]]
compound = "C1CCC(C(CC2CCCCN2)C2CCCCC2)CC1.O=C(O)/C=C\\C(=O)O (configuration not stated) [PERHEXILINE MALEATE]"
study_system = "Solute carrier organic anion transporter family member 1B1 (Homo sapiens, UniProt Q9Y6L6)"
metric = "residual activity"
unit_tag = "%"
reported_value = 68.81

[[record]]
compound = "CCn1cc(C(=O)O)c(=O)c2cc(F)c(N3CCN(C)CC3)cc21.CS(=O)(=O)O [PEFLOXACIN MESYLATE]"
study_system = "Solute carrier organic anion transporter family member 1B1 (Homo sapiens, UniProt Q9Y6L6)"
metric = "residual activity"
unit_tag = "%"
reported_value = 123.1

[[record]]
compound = "Oc1cc(O)cc(/C=C/c2ccccc2)c1"
study_system = "Solute carrier organic anion transporter family member 1B1 (Homo sapiens, UniProt Q9Y6L6)"
metric = "residual activity"
unit_tag = "%"
reported_value = 133.5

[[record]]
compound = "CC1(C)O[C@@H]2C[C@H]3[C@@H]4CCC5=CC(=O)C=C[C@]5(C)[C@@]4(F)[C@@H](O)C[C@]3(C)[C@]2(C(=O)CO)O1 [TRIAMCINOLONE ACETONIDE]"
study_system = "Solute carrier organic anion transporter family member 1B1 (Homo sapiens, UniProt Q9Y6L6)"
metric = "residual activity"
unit_tag = "%"
reported_value = 128.1

[[record]]
compound = "CC1CCC(NC(=O)N(CCCl)N=O)CC1 (configuration not stated)"
study_system = "Solute carrier organic anion transporter family member 1B1 (Homo sapiens, UniProt Q9Y6L6)"
metric = "residual activity"
unit_tag = "%"
reported_value = 101.5

[[record]]
compound = "C=C(CC)C(=O)c1ccc(OCC(=O)O)c(Cl)c1Cl"
study_system = "Solute carrier organic anion transporter family member 1B1 (Homo sapiens, UniProt Q9Y6L6)"
metric = "residual activity"
unit_tag = "%"
reported_value = 171.8

[[record]]
compound = "C[C@H](N)[C@H](O)c1ccccc1"
study_system = "Solute carrier organic anion transporter family member 1B1 (Homo sapiens, UniProt Q9Y6L6)"
metric = "residual activity"
unit_tag = "%"
reported_value = 97.41

[[record]]
compound = "NC(=O)c1cc[n+](CC2=C(C(=O)[O-])N3C(=O)[C@@H](NC(=O)[C@@H](c4ccccc4)S(=O)(=O)[O-])[C@H]3SC2)cc1.[Na+] [CEFSULODIN SODIUM]"
study_system = "Solute carrier organic anion transporter family member 1B1 (Homo sapiens, UniProt Q9Y6L6)"
metric = "residual activity"
unit_tag = "%"
reported_value = 91.84

[[record]]
compound = "O=C(CCCN1CCC2(CC1)C(=O)NCN2c1ccccc1)c1ccc(F)cc1"
study_system = "Solute carrier organic anion transporter family member 1B1 (Homo sapiens, UniProt Q9Y6L6)"
metric = "residual activity"
unit_tag = "%"
reported_value = 168.8

[[record]]
compound = "CC1(C)C=CC(=O)[C@]2(C)[C@H]3CC[C@@]4(C)[C@H](c5ccoc5)OC(=O)[C@H]5O[C@]54[C@]3(C)C(=O)C[C@@H]12"
study_system = "Solute carrier organic anion transporter family member 1B1 (Homo sapiens, UniProt Q9Y6L6)"
metric = "residual activity"
unit_tag = "%"
reported_value = 56.15


Per the record, C[C@]12CC[C@@H](OS(=O)(=O)[O-])C[C@@H]1CC[C@@H]1[C@@H]2CC[C@]2(C)C(=O)CC[C@@H]12.[Na+] has residual activity of 27.84

Per the record, CNC(=O)Oc1cccc2c1OC(C)(C)C2 has residual activity of 100.9

Per the record, Cl.NCCc1ccc(S(=O)(=O)F)cc1 has residual activity of 71.73

Per the record, NC(Cc1c[nH]cn1)C(=O)Nc1ccc2ccccc2c1 (configuration not stated) has residual activity of 89.48

Per the record, CCN(CC)CCOC(=O)c1ccc(N)cc1.Cl [PROCAINE HYDROCHLORIDE] has residual activity of 104.1

Per the record, COc1ccc2cc1Oc1ccc(cc1)C[C@H]1c3cc(c(OC)cc3CCN1C)Oc1c(OC)c(OC)cc3c1[C@H](C2)N(C)CC3 has residual activity of 75.74

Per the record, CN(C)C(=O)Oc1ccc[n+](C)c1.[Br-] [PYRIDOSTIGMINE BROMIDE] has residual activity of 96.49
